B1: Unconventional myosin-Ie, residues 1051 to 1108; numbered along this chain, Q12965 (parent)
chain: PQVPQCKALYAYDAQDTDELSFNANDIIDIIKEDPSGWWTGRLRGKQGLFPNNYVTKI

Variants of: B1
Test: abundance fitness (aPCA) (normalised: wild type 0, dead -1); higher = more abundant; growth selection in yeast, the domain comes from the species named
Details: Homo sapiens
Class (required): determined from abundance fitness; valid ranges are bucket A = under -0.4, bucket B = from -0.4 up to -0.1, bucket C = -0.1 and over

E19C    bucket B
Q5N    bucket C
Q2D    bucket C
L43Y    bucket B
E33N    bucket A

Hello team, could you let me know which band the following variant falls into: I28T bucket B

Hey, which category is N23F in, do you know? bucket C

Into which category would you place G37F ? bucket A

Quick check: band for K57E bucket B

Which category does the recorded abundance fitness put P35F in? bucket B
